- Test system: PPARg DBDmut IVT, anti-PPARg (DBD mutation: PPARg1 K132A/R137A, NR concentration 270 nM)
- protocolDescription: PBM binding z-score (relative to random genomic background probes); higher = stronger binding; sequences stand for … in GC…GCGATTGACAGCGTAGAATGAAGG
PBM binding z-score values for the sequences below.

residueSequence: AATTACGGGTCAACGAGGTTATAGCACGCGTATA
PBM binding z-score: 2.31
--
residueSequence: CAAACTAGGTAACCGGAAGGTCAAAGTCCGCATG
PBM binding z-score: 1.34
--
residueSequence: AATACAGGGTCATCGTAGGCCAGAGAACGCACAG
PBM binding z-score: 1.62
--
residueSequence: CAAACTAGGGCACAGAGGTCAAAGTCCGTGCGTA
PBM binding z-score: 2.72
--
residueSequence: CCTAGTTGGTTAGGAGGTCACACACCGGATATGA
PBM binding z-score: 1.05

---

- Tested on: RXRa homodimer (NR concentration 180 nM)
- protocolDescription: PBM binding z-score (relative to random genomic background probes); higher = stronger binding; sequences stand for … in GC…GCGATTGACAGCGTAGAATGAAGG
experimentalEndpoint: PBM binding z-score

residueSequence: CGTCCAAGGTCATAGGAGGGCAGTGAAGACAGAT
result: 5.44
//
residueSequence: ACAGACAGGTCATGAAGGTAACTCAGGCTATCAT
result: 4.56
//
residueSequence: CCTTACGGGTGACTCCAGGTTATAGCATCGGAGT
result: 0.973
//
residueSequence: CCTACTGGCCCAAAGGTCATTGATTCCAATGCTC
result: 5.05
//
residueSequence: CCGACTGGGGCAAAAAGGTTACCATACCATCCGG
result: 1.7
//
residueSequence: TAGCCTAGGTCATTGGGCCGGTATAGTACGCATC
result: 2.62

---

- Tested on: PPARg DBDmut IVT, anti-PPARg (DBD mutation: PPARg1 K132A/R137A, NR concentration 270 nM)
- protocolDescription: PBM binding z-score (relative to random genomic background probes); higher = stronger binding; sequences stand for … in GC…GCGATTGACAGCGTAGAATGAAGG
Label scheme for PBM binding z-score: lower than 0.2 is 0 (no), 0.2 and above is 1 (yes).

residueSequence: CCGACTGGGGCATAAGGTTACCATTAGCCAGCCC
cat: 0 (no)

residueSequence: TCATATAGGTAAATGCTAGGTGAAAGGCCGATCT
cat: 1 (yes)

residueSequence: CAGCCTAGGTAAGGGCCAGTATAGGAGGAACGTT
cat: 0 (no)

residueSequence: TCTAGTTGGTCACGGAGGTAACACACGACGGGTA
cat: 1 (yes)

residueSequence: TCATTTAGGTAAAAGGTGAAAGTCGGTGTGGTAA
cat: 1 (yes)

residueSequence: CATACATGGTCAGCTAGGCCAGAGTAGGGACGGC
cat: 0 (no)

residueSequence: ACTTACGGGTCAACGAGGTTTTAGCACGCGTATA
cat: 1 (yes)

residueSequence: CCGACTGGGGCACAAGGTTACCATAAGCCAGCCC
cat: 0 (no)

residueSequence: ATATCTAGGTTAGCTGGGGTCATTCAGACTAGGC
cat: 1 (yes)

residueSequence: GCTATTAGTTGAAAGGCCAACCGAATGATTCTCG
cat: 0 (no)

residueSequence: TATACAGGGACAAAGGCCAGAGTACGAATGTCGA
cat: 1 (yes)

residueSequence: TCTGGGAGGACACGAAGGTCAGAGCTTTCCAGAG
cat: 0 (no)

residueSequence: TCTCGGAGGAGACGAAAGGTCAGAGCTCGACATC
cat: 0 (no)

residueSequence: ACTAGCAGGCCAAGTTTAGGTCACTCAAACAAAG
cat: 0 (no)

residueSequence: TAGCCTAGGTCATTGGGCCAGTACAGTACGCATC
cat: 0 (no)

residueSequence: AGTCAAAGTTCAGAACGAGGTAACGTAAAGCACG
cat: 1 (yes)

residueSequence: ATCTCTAGGTAAAAGTTCAGTGGATCCCGAGGAT
cat: 1 (yes)

residueSequence: CCAGACATGTGAAAGGTAACTCAGTCTGGTACGC
cat: 1 (yes)

residueSequence: TTACCAAGGCGAAAGGTCGTTGATGCACGCCTTG
cat: 0 (no)

residueSequence: TAGCCTAGGTCATGCAGGGGCCAGTATAGAAAGC
cat: 0 (no)

residueSequence: GGAACGAAGGCAAAGTTGATAGCATCTGTCGACG
cat: 0 (no)

residueSequence: TTACCAAGGTGAAAGGTCGTTGTTGCACGCCTTG
cat: 1 (yes)

residueSequence: TCATATAGGTAAACAGGTGAAACTCCGTAAGTTA
cat: 1 (yes)

residueSequence: CATCCAAGGTCAATGCTAGGTCAGTGAAAGCATT
cat: 1 (yes)

residueSequence: CGTCCAAGGTCATAGGAGGTCCGTGAAGACAGAT
cat: 1 (yes)

residueSequence: ATACCAAGGTGATCGTGAGGTCATTGATACTAAC
cat: 1 (yes)

residueSequence: ATATGTAGGTTAAGGGTCATTAAGGTTGGTTCGC
cat: 1 (yes)

residueSequence: TCTAGTAGTTGATTAGGGCAACCGAAACAGCGGA
cat: 1 (yes)

residueSequence: TCTGCTAGATCAGTTGGTCAGCTAACGAGCTGCC
cat: 0 (no)

residueSequence: ACTTTCGGGTCAACGAGGTTATAGCACGCGTATA
cat: 1 (yes)

residueSequence: TGTCAAAGTTCAAAGGTAACGTAGGTATCCACAC
cat: 1 (yes)

residueSequence: TCTGCTAGGTCACTTGGTCAGCTAACGAGCTGCC
cat: 1 (yes)

residueSequence: TCTAGCAGGCCAGAGGGTCACTAAAGAGGTACGG
cat: 0 (no)

All values here come from the supplement of paper PMC6555819.
